# study.system: Jun-Jun bZIP R263A (human, UniProt P05412 252-315, R263A)
# Sequence (P05412 252-315 R263A): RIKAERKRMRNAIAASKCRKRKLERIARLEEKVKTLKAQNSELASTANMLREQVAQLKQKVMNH
# method.description: ITC
pKd: −log10 of the molar value.
recorded.metric: pKd

TRE duplex 15-mer (dsDNA) DNA 1: CGCGTGACTCACCCC DNA 2: GGGGTGAGTCACGCG :: 5.67
